target: glucagon receptor (GCGR) (human, UniProt P47871 26-477); test: cell-based or functional assay
Sequence (P47871 26-477): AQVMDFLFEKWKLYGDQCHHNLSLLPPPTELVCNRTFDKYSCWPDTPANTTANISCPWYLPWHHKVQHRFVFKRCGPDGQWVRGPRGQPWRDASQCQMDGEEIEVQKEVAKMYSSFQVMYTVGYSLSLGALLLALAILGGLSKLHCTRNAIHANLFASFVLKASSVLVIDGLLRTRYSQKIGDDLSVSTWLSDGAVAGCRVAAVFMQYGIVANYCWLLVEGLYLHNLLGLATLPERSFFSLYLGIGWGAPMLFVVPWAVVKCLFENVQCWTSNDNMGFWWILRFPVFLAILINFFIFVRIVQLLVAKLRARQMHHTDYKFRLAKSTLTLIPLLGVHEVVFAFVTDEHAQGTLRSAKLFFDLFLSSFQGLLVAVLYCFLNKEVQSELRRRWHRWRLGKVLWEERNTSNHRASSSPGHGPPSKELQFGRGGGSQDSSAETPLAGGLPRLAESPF
Non-standard residues stand in square brackets, D forms with d. Groups on a side chain read outwards from the residue. Primed or numbered codes have the meaning given here. No end group written: not given here. *: point of attachment. Dodecylbenzoate = dodecylbenzoyl lipid group; Stearoyl = CCCCCCCCCCCCCCCCCC(=O)*; αMeF = C[C@](N)(Cc1ccccc1)C(=O)O; αMeK = C[C@](N)(CCCCN)C(=O)O; αMeS = C[C@](N)(CO)C(=O)O; PEG2′ = not defined here; Aib = CC(C)(N)C(=O)O
experimentalReadout: Primary assay EC50 (cAMP), Gluc-R, second run (nM)
Give bare numbers, in nM.

Look over these answered cases.
# binder, resultValue
measured = [
    ("H[Aib]EGS[αMeF]TSDV[αMeS]S[αMeF]LEGEAAK([PEG2′-PEG2′-Stearoyl])E[αMeF]IA[αMeF]VV[αMeK]GG-NH2 [SEQ ID NO 162]", 26),
    ("H[Aib]EGS[αMeF]TSDV[αMeS]S[αMeF]LEGEAA[αMeK]E[αMeF]IA[αMeF]VVK([PEG2′-PEG2′-PEG2′-Stearoyl])GG-NH2 [SEQ ID NO 199]", 25),
    ("H[Aib]EGS[αMeF]TSDV[αMeS]S[αMeF]LEGEAA[αMeK]E[αMeF]IA[αMeF]VVK([PEG2′-PEG2′-Dodecylbenzoate])GG-NH2 [SEQ ID NO 180]", 26),
]

Query block: Report measured Primary assay EC50 (cAMP), Gluc-R, second run; entry is H[Aib]EGS[αMeF]TSDV[αMeS]S[αMeF]LEGEAAK([PEG2′-Stearoyl])E[αMeF]IA[αMeF]VV[αMeK]GG-NH2 [SEQ ID NO 161]
Result block: 27
